tested on: HMEC; experiment: Cytotoxic effect of LDL oxidized by HMEC1 cells at 10 uM by MTT assay expressed as percentage of viability in unstimulated control; assay type: functional, Homo sapiens
Values of Activity greater than or equal to 50% map to yes (1); values below map to no (0).

>  <smilesData>
Cc1c(C)c2c(c(C)c1O)CC[C@@](C)(CCC[C@H](C)CCC[C@H](C)CCCC(C)C)O2

>  <class>
no (0)

$$$$
>  <smilesData>
CCOP(=O)(O)/C=C/c1ccc(O)cc1

>  <class>
no (0)

$$$$
>  <smilesData>
CCOP(=O)(/C=C/c1cc(OC)c(O)c(OC)c1)OCC

>  <class>
yes (1)

$$$$
>  <smilesData>
COc1ccc(/C=C/C(=O)Nc2ccccn2)cc1OC

>  <class>
no (0)

$$$$
>  <smilesData>
CC(C)(Sc1cc(C(C)(C)C)c(O)c(C(C)(C)C)c1)Sc1cc(C(C)(C)C)c(O)c(C(C)(C)C)c1

>  <class>
yes (1)

$$$$
>  <smilesData>
CCOP(=O)(/C=C/c1ccc(O)c(OC)c1)OCC

>  <class>
yes (1)

$$$$
>  <smilesData>
CCOP(=O)(O)/C=C/c1cc(OC)c(O)c(OC)c1

>  <class>
no (0)

$$$$
>  <smilesData>
COc1ccc(/C=C/C(=O)SCCNC(C)=O)cc1

>  <class>
no (0)

$$$$
>  <smilesData>
CCOP(=O)(O)/C=C/c1ccc(O)c(OC)c1

>  <class>
no (0)

$$$$
>  <smilesData>
COc1cc(/C=C/C(=O)SCCNC(C)=O)ccc1O

>  <class>
yes (1)

$$$$

Where do the numbers come from? From ChEMBL document CHEMBL1140433.
